Test: folding stability dG unfold (combined trypsin and chymotrypsin); higher = more stable
Quick rule: folding stability dG unfold of at least 0.4 kcal/mol means TRUE, below that means FALSE.

{"columns": ["RESIDUE CODES", "CLASS NAME"],
 "data": [
  ["SAGGSAMTVTYTPSTKTITITDPSNGKPVKVTVTEEKPVVPGKNVYELTVTVPDTGGEKKILITLPSAGGSA [r15_209_JUSTAS]", "TRUE"],
  ["SAGGSAGGMTVTFTLPATAPENALENVTATVTYNGKTYLVKITATPVPDGPFVVVTAELVEYDPSAGGSAGG [r6_415_TrMRF]", "TRUE"],
  ["SAGPADPGFLGTRTVPHPDGVVTVDVYRFAGTRVLITITLPDSTVPVEDPVESEEEALAFADAVVAEVGLSA [r9_758_JUSTAS]", "TRUE"],
  ["SAGGSAGGSEAKIELEYDEETNTLTVRIEVDGELYEERIEVTIEPAPPPPPPVEVVVVELPEESAGGSAGGS [r12_70_TrROS_Hall]", "TRUE"],
  ["SAGGSAGGSAGAVTVTVDAAPDPLPDREYVVVTVERTLPSGEVLAESRVFDRAEEALEAASAGGSAGGSAGG [r11_792_TrMRF]", "FALSE"],
  ["SAGGSAGGMIKYSEEAPDPSYRTEVEVTPVPGKVAIKTTTYRNENGVWTAEESTSVVSPEALLSSAGGSAGG [r6_778_JUSTAS]", "FALSE"],
  ["SAGMKPGEKVKVTLTLTETRVEEVDGEKKVEKRTLTIEVTVEVSEEDREKALEEAEELARKLAEEGLIPSAG [r5_532_TrROS_Hall]", "TRUE"],
  ["SAGGSAGGGEMELVLTVPPEEVTPEQLLELVEEIREALEKGGAKAEPVKIDPEKGVVILFRVDPSAGGSAGG [r6_850_TrMRF]", "FALSE"],
  ["SAGGPITITYDEETGVLTITITVPSLEEAEALIKALLPPGAEATRITVERNEDGSVTVTVEIRLPKGLSAGG [r13_338_TrROS_Hall]", "TRUE"],
  ["SAGPEKVREAARELFEKLNLPIVSEEAIEVGDAVLIRFEIPEIGTKITILAPVFENGEIKVIVKIEPVSSAG [r5_888_TrMRF]", "TRUE"],
  ["SMPEIKVEKKNGKLTITVPKGAKIKIKIEVNGKKIEKEVEVKEGETVTITIELPPNMPKDVKIKEIEIEKSA [r9_1152_TrROS_Hall]", "TRUE"],
  ["SAGGSAGGSAGPFTIMVIERVPPDDPEYDKLHKDNGMPPENMIRIKIFRFKSPEQLKELFSAGGSAGGSAGG [r11_83_TrROS]", "TRUE"],
  ["SAGGSAHPVQFPNGQEFPIRNPKNGKDFKIRMEQEDGPMRAEIEYPGGGKKRRIDGPMSLEEALKQSAGGSA [r15_234_TrROS]", "FALSE"],
  ["SAGGSAGGSAMIVKEFVTYDPSTGTRTRTTVTLELYDSPEGGAVVVLEEEVDPVGPLPPLESAGGSAGGSAG [r3_397_JUSTAS]", "FALSE"],
  ["SAYIQIERDPDGYIKIEVWFDSPDEGKEFVKEFVKELADQGLDIKIKVTKIEPYPGDPNMYRVSYTIKVSAG [r14_119_TrROS]", "TRUE"],
  ["SAGGLEELAKEIADDLQKRNPDMNIEVQVEVHEYKIPPGQKMRHPDGEEKEVPPGQKVYMFTIRVTPSAGGS [r16_357_TrROS]", "TRUE"],
  ["SAGGSAGGSWFIRVEYKRPNGQPKTLQIPVPRDQLKKMSIDEIKDRAENLGLPPNVKIEWYPFSAGGSAGGS [r12_742_TrROS]", "TRUE"],
  ["SAGGLNINLPPGQEIELTLQVTHLFNGGNGDFGSMTHTYEIPIKIKPIPPVPKPEVERDPDGNYKVEDSAGG [r13_401_TrROS]", "FALSE"],
  ["SAGGKKYVLIKVKVRVEKEVNGEKKEVELELEILVPVDEETGKTPEEKAKELAKKLPPEVTEVKIEPVSAGG [r13_335_TrROS_Hall]", "TRUE"],
  ["SAGGSAGGTIPSDYSVKELKVGGKKYVIVRYPDGIVELYSVEGNKKTLLRTVDTDPNASVSISGSAGGSAGG [r6_476_JUSTAS]", "TRUE"],
  ["SAGGSAGGSAGGDKNGKKELRPEVKIKVKIEAEIEPFRYPNNGMPMWILKISIEITSIDSAGGSAGGSAGGS [r10_877_TrROS]", "TRUE"],
  ["SAGGSAKITIHMAPDGMFQIEIKTGGKERTYHVDMPLEQIKDELEDEGLEIKDIEITPFPPDPEDFSAGGSA [r15_576_TrROS]", "FALSE"],
  ["SAGGSALTLNDKSLIPKPFPKKKAIVDVAVPLPPNLTLEEALEVAEAIANNLLKAGKIDEATVAIYSAGGSA [r15_450_TrMRF]", "FALSE"],
  ["SAGGSAGGSMETVVTVPLPDGRTLTITRYPDGTVTVTYPDGTPVATRPVAPDTSDEAVVAALASAGGSAGGS [r12_990_JUSTAS]", "TRUE"],
  ["SAGGSAGGSMLVLKVEVKIEVEEREVIGPDGKIKKEKKIKIEIKIELFELPPLTEEELKKLKESAGGSAGGS [r12_1060_TrROS_Hall]", "TRUE"],
  ["SAGGKEYRNPENGQKIPPGDTEEEREKHAREHAKPVIVPIEIPIVIKFGDVIFPIPITFEIPLTPGGSAGGS [r16_387_TrROS]", "FALSE"]
]}
